In this section we review reported Emax values for a set of molecules.
Molecular target: wild-type Androgen Receptor (AR-wt) (Homo sapiens (Human), UniProt P10275)
Sequence (P10275 whole entry): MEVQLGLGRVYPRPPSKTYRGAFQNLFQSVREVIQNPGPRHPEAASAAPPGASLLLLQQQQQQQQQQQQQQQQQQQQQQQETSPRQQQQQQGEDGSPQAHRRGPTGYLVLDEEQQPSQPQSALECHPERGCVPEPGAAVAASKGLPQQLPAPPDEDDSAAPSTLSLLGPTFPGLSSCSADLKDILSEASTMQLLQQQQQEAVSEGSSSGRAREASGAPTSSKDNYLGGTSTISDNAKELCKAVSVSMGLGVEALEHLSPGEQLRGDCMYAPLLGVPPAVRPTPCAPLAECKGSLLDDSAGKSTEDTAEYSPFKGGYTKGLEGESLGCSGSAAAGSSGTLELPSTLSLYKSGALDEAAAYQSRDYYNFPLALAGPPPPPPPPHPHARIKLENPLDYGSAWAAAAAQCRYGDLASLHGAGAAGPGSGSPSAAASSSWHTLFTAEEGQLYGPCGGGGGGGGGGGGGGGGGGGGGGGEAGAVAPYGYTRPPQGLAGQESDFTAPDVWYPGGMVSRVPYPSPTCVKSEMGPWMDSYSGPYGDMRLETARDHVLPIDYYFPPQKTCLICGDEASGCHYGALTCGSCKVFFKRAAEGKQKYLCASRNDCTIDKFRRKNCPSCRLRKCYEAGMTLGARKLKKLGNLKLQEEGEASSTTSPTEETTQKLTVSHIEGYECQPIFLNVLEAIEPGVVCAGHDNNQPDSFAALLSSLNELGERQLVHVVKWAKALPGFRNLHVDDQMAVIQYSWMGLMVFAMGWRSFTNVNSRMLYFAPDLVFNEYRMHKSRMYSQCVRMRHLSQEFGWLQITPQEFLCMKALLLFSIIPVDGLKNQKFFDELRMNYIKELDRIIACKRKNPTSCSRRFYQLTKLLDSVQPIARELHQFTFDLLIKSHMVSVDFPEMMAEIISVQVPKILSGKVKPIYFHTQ
Experiment: LNCaP-AR-wt AG reporter assay (agonist mode)
Format: cell-based
Details: maximum % stimulation (agonist response) over the tested concentration range; read-out: LNCaP-AR-wt AG MAX % Stim
The response must be a number in % with no trailing unit.

> print(dat)
                                   molecule  result.type  assay.result
1  CC(=O)N1CCc2cc(N3C(=S)N(c4cnc(C#N)c(C(F)(F)F)c4)C(=O)C34CCC4)ccc2C1         Emax           0.2

Now examine the next entry.
What value of Emax has been recorded for this entry: `N#Cc1ncc(N2C(=O)C3(CCC3)N(c3ccc(OC4CCN(CCF)CC4)nc3)C2=S)cc1C(F)(F)F`
0.4

---

Target: wild-type Androgen Receptor (AR-wt) (Homo sapiens (Human), UniProt P10275)
Experiment: LNCaP-AR-wt ANT reporter assay (antagonist mode)
Assay type: cell-based
Conditions: antagonist mode; pIC50 = −Log10(IC50 in Molar); read-out: LNCaP-AR-wt ANT pIC50 (converted)
IC50 strictly under 0.6 µM means Met; at 0.6 µM or over means Not met.

The following compounds have reported results that may help.
> print(dat)
                               input.smiles  category.label
1  COCCn1cc2cc(N3C(=S)N(c4cnc(C#N)c(OC)c4)C(=O)C34CCC4)ccc2n1             Met
2  N#Cc1ncc(N2C(=O)C3(CCC3)N(c3ccc(OCCN4CC5(COC5)C4)cc3)C2=S)cc1C(F)(F)F             Met
3  N#Cc1ncc(N2C(=O)C3(CCC3)N(c3ccc(C4=C[C@@H](O)[C@H](O)CO4)cc3)C2=S)cc1C(F)(F)F             Met
4  CN1CCC(n2ncc3cc(N4C(=S)N(c5cnc(C#N)c(C(F)(F)F)c5)C(=O)C45CCC5)ccc32)CC1         Not met
5  C=CCN1CCC(Oc2ccc(N3C(=S)N(c4cnc(C#N)c(Cl)c4)C(=O)C34CCC4)cn2)CC1             Met

For this compound, is IC50 lower than 0.6 µM? `N#Cc1ncc(N2C(=O)C3(CCC3)N(c3ccc(OC4CCN(CCF)CC4)cc3)C2=S)cc1C(F)(F)F`
Met

For this compound, is IC50 lower than 0.6 µM? `CN1CCC(C(=O)c2ccc(N3C(=S)N(c4cnc(C#N)c(C(F)(F)F)c4)C(=O)C34CCC4)cc2)CC1`
Not met

---

Target: wild-type Androgen Receptor (AR-wt) (Homo sapiens (Human), UniProt P10275)
Assay: LNCaP-AR-wt ANT reporter assay (antagonist mode)
Assay type: cell-based
Conditions: maximum % inhibition of R1881 control response over the tested concentration range; read-out: LNCaP-AR-wt ANT MAX % Inh
result-type: Emax (%)
The response must be a number in % with no trailing unit.

Examples with their reported Emax follow.
> print(dat)
                                   molecule  assay.result
1  COCCN1CCC(Oc2ccc(N3C(=S)N(c4cnc(C#N)c(C)c4)C(=O)C34CCC4)cc2)CC1 [Cpd 37]          99.8
2  N#Cc1ncc(N2C(=O)C3(CCC3)N(c3ccc(OC4CC5(CCN5)C4)cc3)C2=S)cc1C(F)(F)F (stereo not drawn) [Cpd 148]           101

What value of Emax has been recorded for this entry: N#Cc1ncc(N2C(=O)C3(CCC3)N(c3ccc(O)nc3)C2=S)cc1C(F)(F)F [Cpd 18]
93.5

What value of Emax has been recorded for this entry: Cn1ncc2cc(N3C(=S)N(c4cnc(C#N)c(Cl)c4)C(=O)C34CCC4)ccc21 [Cpd 168]
101

What value of Emax has been recorded for this entry: CCOC(=O)N1CCN(Cc2ccc(N3C(=S)N(c4cnc(C#N)c(C(F)(F)F)c4)C(=O)C34CCC4)cc2)CC1 [Cpd 55]
104

What value of Emax has been recorded for this entry: CN1CCC[C@H](Oc2ccc(N3C(=S)N(c4cnc(C#N)c(C(F)(F)F)c4)C(=O)C34CCC4)cc2)C1 [Cpd 20]
93.2

What value of Emax has been recorded for this entry: N#Cc1ncc(N2C(=O)C3(CCC3)N(c3ccc(OCCN4CC5(C4)CC(F)(F)C5)cc3)C2=S)cc1C(F)(F)F [Cpd 83]
102

What value of Emax has been recorded for this entry: COc1cc(N2C(=O)C3(CCC3)N(c3ccc4nn(CCO)cc4c3)C2=S)cnc1C#N [Cpd 164]
102

What value of Emax has been recorded for this entry: CN1CCC(Oc2ccc(N3C(=S)N(c4cnc(C#N)c(C(F)(F)F)c4)C(=O)C34CCC4)cn2)CC1 [Cpd 1]
101

What value of Emax has been recorded for this entry: CC(C)(C)OC(=O)N1CCN(Cc2ccc(N3C(=S)N(c4cnc(C#N)c(C(F)(F)F)c4)C(=O)C34CCC4)cc2)CC1 [Cpd 47]
100

What value of Emax has been recorded for this entry: CN1[C@@H]2CC[C@H]1C[C@H](Oc1ccc(N3C(=S)N(c4cnc(C#N)c(C(F)(F)F)c4)C(=O)C34CCC4)cc1)C2 [Cpd 52]
98.3

What value of Emax has been recorded for this entry: COC(=O)C1CCC(N2C(=S)N(c3cnc(C#N)c(C(F)(F)F)c3)C(=O)C23CCC3)CC1 (stereo not drawn) [Cpd 57]
100

---

Target: F876L mutant Androgen Receptor (AR-F876L) (Homo sapiens (Human), UniProt P10275, F877L)
Sequence (P10275 whole entry F877L): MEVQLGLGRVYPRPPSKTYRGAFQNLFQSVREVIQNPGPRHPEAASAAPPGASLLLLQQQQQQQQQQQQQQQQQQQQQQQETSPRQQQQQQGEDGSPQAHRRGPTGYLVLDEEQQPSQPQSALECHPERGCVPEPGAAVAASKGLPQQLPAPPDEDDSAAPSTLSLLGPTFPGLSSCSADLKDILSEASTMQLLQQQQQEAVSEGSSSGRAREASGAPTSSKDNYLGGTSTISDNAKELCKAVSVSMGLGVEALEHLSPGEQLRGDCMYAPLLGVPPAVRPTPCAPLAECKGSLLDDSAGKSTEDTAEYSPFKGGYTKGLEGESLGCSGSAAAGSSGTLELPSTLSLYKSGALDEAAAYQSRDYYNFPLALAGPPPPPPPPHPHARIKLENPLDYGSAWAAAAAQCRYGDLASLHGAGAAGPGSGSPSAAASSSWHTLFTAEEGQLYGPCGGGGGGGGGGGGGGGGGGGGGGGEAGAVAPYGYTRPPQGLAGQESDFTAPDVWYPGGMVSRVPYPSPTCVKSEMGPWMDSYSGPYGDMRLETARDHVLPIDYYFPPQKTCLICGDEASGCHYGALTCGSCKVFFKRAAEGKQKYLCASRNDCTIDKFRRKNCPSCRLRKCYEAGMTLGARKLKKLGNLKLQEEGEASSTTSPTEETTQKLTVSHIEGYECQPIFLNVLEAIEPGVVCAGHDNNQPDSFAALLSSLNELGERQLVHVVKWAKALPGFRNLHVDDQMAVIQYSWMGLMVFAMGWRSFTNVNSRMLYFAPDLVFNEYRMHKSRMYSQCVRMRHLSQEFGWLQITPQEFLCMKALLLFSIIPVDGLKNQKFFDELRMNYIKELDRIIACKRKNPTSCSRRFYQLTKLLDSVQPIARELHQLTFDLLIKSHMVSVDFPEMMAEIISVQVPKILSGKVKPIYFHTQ
Assay: LNCaP-AR-F876L AG reporter assay (agonist mode)
Assay type: cell-based
Conditions: maximum % stimulation (agonist response) over the tested concentration range; read-out: LNCaP-AR-F876L AG MAX % Stim
result-type: Emax (%)
The response must be a number in % with no trailing unit.

> print(dat)
                                   compound  result.type  assay.result
1  CN1CCC(Oc2ncc(N3C(=S)N(c4cnc(C#N)c(C(F)(F)F)c4)C(=O)C34CCC4)cn2)CC1         Emax           0.1
2  N#Cc1ncc(N2C(=O)C3(CCC3)N(c3ccc(O[C@H]4C[C@H]5CC[C@@H](C4)N5)cc3)C2=S)cc1C(F)(F)F         Emax           3.4

Requested read-out Emax, target or system F876L mutant Androgen Receptor (AR-F876L) (Homo sapiens (Human), UniProt P10275, F877L), entry `CN1CCc2cc(N3C(=S)N(c4cnc(C#N)c(C(F)(F)F)c4)C(=O)C34CCC4)ccc2C1`
0

Requested read-out Emax, target or system F876L mutant Androgen Receptor (AR-F876L) (Homo sapiens (Human), UniProt P10275, F877L), entry CN1C2CCC1CC(c1ccc(N3C(=S)N(c4cnc(C#N)c(C(F)(F)F)c4)C(=O)C34CCC4)cc1)C2 (stereo not drawn)
0.3

Requested read-out Emax, target or system F876L mutant Androgen Receptor (AR-F876L) (Homo sapiens (Human), UniProt P10275, F877L), entry N#Cc1ncc(N2C(=O)C3(CCC3)N(c3ccc(C4=CC5CCC(C4)N5)cc3)C2=S)cc1C(F)(F)F (stereo not drawn)
0.8

Requested read-out Emax, target or system F876L mutant Androgen Receptor (AR-F876L) (Homo sapiens (Human), UniProt P10275, F877L), entry CC(C)(C)OC(=O)N1C2CCC1CC(c1ccc(N3C(=S)N(c4cnc(C#N)c(C(F)(F)F)c4)C(=O)C34CCC4)cc1)C2 (stereo not drawn)
1.8

---

In this section we review reported IC50 values for a set of compounds.
Biological target: wild-type Androgen Receptor (AR-wt) (Homo sapiens (Human), UniProt P10275)
Assay: LNCaP-AR-wt ANT reporter assay (antagonist mode)
Type: cell-based
Conditions: antagonist mode; pIC50 = −Log10(IC50 in Molar); read-out: LNCaP-AR-wt ANT pIC50 (converted)
Number first, unit second: that is the form wanted.

> print(dat)
                               input.smiles                           measured.target  assay.result
1  CC(C)(C)OC(=O)N1CCN(Cc2ccc(N3C(=S)N(c4cnc(C#N)c(C(F)(F)F)c4)C(=O)C34CCC4)cc2)CC1  wild-type Androgen Receptor (AR-wt) (Homo sapiens (Human), UniProt P10275)        316 nM
2  Cn1c(CCO)nc2cc(N3C(=S)N(c4cnc(C#N)c(C(F)(F)F)c4)C(=O)C34CCC4)ccc21  wild-type Androgen Receptor (AR-wt) (Homo sapiens (Human), UniProt P10275)       2510 nM
3  Cc1cc(N2C(=O)C3(CCC3)N(c3ccc(OC4CCN(CC(F)(F)F)CC4)nc3)C2=S)cnc1C#N  wild-type Androgen Receptor (AR-wt) (Homo sapiens (Human), UniProt P10275)         38 nM
4  N#Cc1ncc(N2C(=O)C3(CCC3)N(c3ccc4nn(C5CCNCC5)cc4c3)C2=S)cc1C(F)(F)F  wild-type Androgen Receptor (AR-wt) (Homo sapiens (Human), UniProt P10275)        575 nM

Requested read-out IC50, target or system wild-type Androgen Receptor (AR-wt) (Homo sapiens (Human), UniProt P10275), entry `N#CCN1CCC(Oc2ccc(N3C(=S)N(c4cnc(C#N)c(Cl)c4)C(=O)C34CCC4)cn2)CC1`
7.24 nM
